Tested on: UEA-1 binding sites on Caco-2 cell membrane preparations
Experiment: Two tier competition assay: compound incubated alone with membranes, biotinylated UEA-1 added in next step
Set-up: species or system human
Conditions: Two Tier Assay, 250 μg/ml; library TP1012
Outcome: label 1 for Avg % Inhib of at least 70%; label 0 for anything lower.

[
  {
    "compound": "CNC[C@H](Cc1ccc(F)cc1)N(C)C[C@H](Cc1ccc(F)cc1)NC(=O)Cc1ccc(Cl)c(Cl)c1",
    "class.label": "label 1"
  },
  {
    "compound": "CCCC[C@@H](CNC)N(C)C[C@@H](CC1CCCCC1)NC(=O)c1cc(O)c(O)c(O)c1",
    "class.label": "label 0"
  },
  {
    "compound": "CNC[C@H](Cc1ccc(F)cc1)N(C)C[C@H](Cc1ccc(F)cc1)NC(=O)Cc1cccc(C(F)(F)F)c1",
    "class.label": "label 0"
  },
  {
    "compound": "CCCCC(CNC)N(C)CC(CC1CCCCC1)NC(=O)c1cc(O)c(O)c(O)c1 (stereo not shown)",
    "class.label": "label 1"
  },
  {
    "compound": "CCCC[C@@H](CNC)N(C)C[C@H](CC1CCCCC1)NC(=O)c1cc(O)c(O)c(O)c1",
    "class.label": "label 0"
  },
  {
    "compound": "CNC[C@H](CC(C)C)N(C)C[C@H](Cc1ccccc1)NC(=O)c1cc(O)c(O)c(O)c1",
    "class.label": "label 1"
  }
]
